test: chemical genetic growth profiling, strain panel (AID 1159580);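 note: tested at 20 µM; growth read once vehicle control cultures reached saturation at 30 °C; 1 = growth at the plate median or of vehicle wells; lower values mean less growth of the strain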; conditions: S. cerevisiae deletion strains, growth OD, locus YHR027C, strain rpn1, stronger effect = lower value
Out of some 5,500 compounds screened, about 2,000 (36%) were called active. About 18% were inconclusive and are not listed. The list shows a part of the results.

MOLECULE	normalized growth
CC1=C(C/C=C(\C)CCC[C@H](C)CCC[C@H](C)CCCC(C)C)C(=O)c2ccccc2C1=O	0.984
C[N+](C)(C)CCOC(N)=O	1.01
CC(=O)N[C@@H](CC(C)C)C(=O)O	1
NCC1CCC(C(=O)O)CC1 (stereo not given)	0.996
Cc1cccc(C)c1OCC(C)N (stereo not given)	1.01
